Value source: ChEMBL document CHEMBL2163241

- TARGET OR TEST SYSTEM: Neutrophil elastase (Homo sapiens)
- Sequence (whole entry): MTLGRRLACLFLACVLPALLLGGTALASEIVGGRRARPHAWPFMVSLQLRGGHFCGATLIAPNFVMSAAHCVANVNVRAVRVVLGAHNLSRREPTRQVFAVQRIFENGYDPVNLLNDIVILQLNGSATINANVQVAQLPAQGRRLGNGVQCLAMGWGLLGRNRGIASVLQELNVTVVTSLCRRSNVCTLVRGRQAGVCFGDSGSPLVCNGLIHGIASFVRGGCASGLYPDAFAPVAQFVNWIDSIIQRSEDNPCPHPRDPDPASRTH
- METHOD SUMMARY: Inhibition of human leukocyte elastase at 25 uM assessed as Kinact/Ki ratio incubated for 15 mins by spectrofluorometry
Quick list: log10 Ratio per entry.
MEASUREMENT TYPE: log10 Ratio (log10 of the value in M⁻¹ s⁻¹)

compound="CSc1ccc(OP(=O)(Oc2ccc(SC)cc2)C(CC(C)C)NC(=O)[C@@H]2CCCN2C(=O)[C@@H](NC(=O)OC(C)(C)C)C(C)C)cc1 (mixture of isomers)" target_or_test_system="Neutrophil elastase (Homo sapiens)" value_measured=3.61
compound="CCCC(NC(=O)[C@@H]1CCCN1C(=O)[C@@H](NC(=O)OC(C)(C)C)C(C)C)P(=O)(Oc1ccc(SC)cc1)Oc1ccc(SC)cc1 (mixture of isomers)" target_or_test_system="Neutrophil elastase (Homo sapiens)" value_measured=4.75
compound="CCc1ccc(OP(=O)(Oc2ccc(CC)cc2)C(CC)NC(=O)[C@@H]2CCCN2C(=O)[C@@H](NC(=O)OC(C)(C)C)C(C)C)cc1 (mixture of isomers)" target_or_test_system="Neutrophil elastase (Homo sapiens)" value_measured=3.14
compound=CSc1ccc(OP(=O)(Oc2ccc(SC)cc2)[C@@H](NC(=O)[C@@H]2CCCN2C(=O)[C@@H](NC(=O)Cn2ccc(=O)n(CC(=O)O)c2=O)C(C)C)C(C)C)cc1 target_or_test_system="Neutrophil elastase (Homo sapiens)" value_measured=6.03
compound=CSc1ccc(OP(=O)(Oc2ccc(SC)cc2)[C@H](NC(=O)[C@@H]2CCCN2C(=O)[C@@H](NC(=O)Cn2ccc(=O)n(CC(=O)O)c2=O)C(C)C)C(C)C)cc1 target_or_test_system="Neutrophil elastase (Homo sapiens)" value_measured=3.30
compound="CC[C@H](C)[C@H](NC(=O)OCc1ccccc1)C(=O)N1CCC[C@H]1C(=O)NC(C(C)C)P(=O)(Oc1ccc(SC)cc1)Oc1ccc(SC)cc1 (mixture of isomers)" target_or_test_system="Neutrophil elastase (Homo sapiens)" value_measured=5.16
compound="CSc1ccc(OP(=O)(Oc2ccc(SC)cc2)C(NC(=O)[C@@H]2CCCN2C(=O)[C@@H](NC(=O)OC(C)(C)C)C(C)C)C(C)C)cc1 (mixture of isomers)" target_or_test_system="Neutrophil elastase (Homo sapiens)" value_measured=5.34
compound="COc1ccc(OP(=O)(Oc2ccc(OC)cc2)C(CC(C)C)NC(=O)[C@@H]2CCCN2C(=O)[C@@H](NC(=O)OC(C)(C)C)C(C)C)cc1 (mixture of isomers)" target_or_test_system="Neutrophil elastase (Homo sapiens)" value_measured=2.43
